Origin of measurements: patent US20200338203A1

Measured pKi of individual entries
System tested: T1, Human EphA2 (Ecto) (Human, UniProt P29317 24-537)
T1 construct: extracellular domain
T1 sequence (P29317 24-537): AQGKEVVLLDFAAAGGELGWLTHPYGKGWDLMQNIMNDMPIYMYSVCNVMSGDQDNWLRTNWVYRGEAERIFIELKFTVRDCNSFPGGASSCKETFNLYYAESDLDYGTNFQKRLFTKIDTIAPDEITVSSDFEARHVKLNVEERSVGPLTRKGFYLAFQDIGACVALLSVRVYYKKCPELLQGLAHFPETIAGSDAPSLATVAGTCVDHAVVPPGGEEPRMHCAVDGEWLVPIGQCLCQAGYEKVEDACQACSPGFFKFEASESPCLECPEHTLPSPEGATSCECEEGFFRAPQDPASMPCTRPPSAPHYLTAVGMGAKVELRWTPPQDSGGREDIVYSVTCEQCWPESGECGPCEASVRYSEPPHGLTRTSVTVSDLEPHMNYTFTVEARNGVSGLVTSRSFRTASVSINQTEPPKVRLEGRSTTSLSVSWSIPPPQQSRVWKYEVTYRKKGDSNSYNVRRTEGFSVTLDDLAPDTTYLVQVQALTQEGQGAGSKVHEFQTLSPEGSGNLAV
Protocol notes: FP competition; competitor Compound 66
pKi: −log10 of the molar value. Numbered stars: 1 amine (or outer) side, 2 acyl side, 3 side chain; on linkers, the order of the positions; unused ones are H or OH. Bridge positions count the residues as written; N and C are the ends. Square brackets hold non-standard residues; d marks the D form. Ends that are not written are not given here. 1Nal = N[C@@H](Cc1cccc2ccccc12)C(=O)O; TBMB = c1c(C[*:1])cc(C[*:3])cc1C[*:2]; hArg = N=C(N)NCCCC[C@H](N)C(=O)O; Tle = CC(C)(C)[C@H](N)C(=O)O; Aib = CC(C)(N)C(=O)O; Sar = CNCC(=O)O

# Binder, pKi
data = [
    ("[Sar][Sar]AC[Aib][1Nal]GPFWCPVNRP[dA]C (linker 4-11-18 via TBMB) [Compound 125]", 9.21),
    ("[Sar][Sar]ACP[1Nal]G[Aib]FWCP[Tle]N[hArg]PGC (linker 4-11-18 via TBMB) [Compound 136]", 7.82),
    ("ACRVSPEYCPFGPVWCAGAAA (linker 2-9-16 via TBMB) [Compound 34]", 7.11),
    ("[Sar][Sar]ACP[1Nal]GPF[1Nal]CPVNRPGC (linker 4-11-18 via TBMB) [Compound 120]", 9.01),
    ("[Sar][Sar]ACPWGPF[1Nal]CPVNRPGC (linker 4-11-18 via TBMB) [Compound 96]", 7.17),
]
